systemName: MurG (Escherichia coli)
experiment: fluorescence polarization displacement assay with labeled donor F1
Assay type: binding, E. coli
conditions: displacement of F1 from MurG; read-out: Dissociation constants
Reported Kd is given for each of the following molecules.
Kindly write the number and append the unit.

O=c1ccn([C@@H]2O[C@H](COP(=O)(O)O)[C@@H](O)[C@H]2O)c(=O)[nH]1    99.6 µM
Nc1ncnc2c1ncn2[C@@H]1O[C@H](COP(=O)(O)OP(=O)(O)O)[C@@H](O)[C@H]1O    88.2 µM
CC(=O)N[C@H]1[C@@H](OP(=O)(O)OP(=O)(O)OC[C@H]2O[C@@H](n3ccc(=O)[nH]c3=O)[C@H](O)[C@@H]2O)O[C@H](CO)[C@H](O)[C@@H]1O    73.1 µM

Consider the additional molecule presented here.
Query: Recorded Kd for CC(=O)N[C@H]1[C@@H](OP(=O)(O)OP(=O)(O)OC[C@H]2O[C@@H](n3ccc(=O)[nH]c3=O)[C@H](O)[C@@H]2O)O[C@H](CO)[C@@H](O)[C@@H]1O , please?
Response: 1.8 µM

---

systemName: UniProt:P02919
Sequence (P02919 whole entry): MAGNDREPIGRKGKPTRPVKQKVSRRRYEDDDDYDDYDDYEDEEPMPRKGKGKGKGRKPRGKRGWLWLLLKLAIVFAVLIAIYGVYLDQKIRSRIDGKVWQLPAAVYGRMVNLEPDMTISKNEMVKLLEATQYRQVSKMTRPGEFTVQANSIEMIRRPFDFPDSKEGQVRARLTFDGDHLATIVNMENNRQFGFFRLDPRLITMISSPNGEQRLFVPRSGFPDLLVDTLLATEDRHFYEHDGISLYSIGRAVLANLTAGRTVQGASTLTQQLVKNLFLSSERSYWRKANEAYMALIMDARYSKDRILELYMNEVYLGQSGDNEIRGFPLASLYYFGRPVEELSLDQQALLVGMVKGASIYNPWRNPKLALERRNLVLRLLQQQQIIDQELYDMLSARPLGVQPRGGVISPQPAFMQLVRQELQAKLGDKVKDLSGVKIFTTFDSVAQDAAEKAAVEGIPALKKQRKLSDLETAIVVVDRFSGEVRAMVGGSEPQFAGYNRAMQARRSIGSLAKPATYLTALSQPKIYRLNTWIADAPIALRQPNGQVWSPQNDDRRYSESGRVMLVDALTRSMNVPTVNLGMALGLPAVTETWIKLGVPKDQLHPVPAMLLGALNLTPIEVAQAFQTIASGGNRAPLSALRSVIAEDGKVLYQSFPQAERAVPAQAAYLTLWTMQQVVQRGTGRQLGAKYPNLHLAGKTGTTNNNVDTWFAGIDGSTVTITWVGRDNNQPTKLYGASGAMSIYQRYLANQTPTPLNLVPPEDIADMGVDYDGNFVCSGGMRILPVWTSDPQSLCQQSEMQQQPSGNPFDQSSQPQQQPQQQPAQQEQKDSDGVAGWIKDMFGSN
experiment: Assays for transglycosylase PBP1b
Type: biochemical
valueType: IC50

Cc1cc(/C=C2\C(=O)NC(=S)N(c3cccc(Cl)c3)C2=O)c(C)n1-c1cc(C(=O)O)cc(C(=O)O)c1 [Compound 5]    > 100 µM
CC(C)(C)c1ccc(OCCOc2cccc(C=C3C(=O)NC(=S)NC3=O)c2)cc1 [Compound 6]    > 100 µM

Consider the additional molecule presented here.
Query: Recorded IC50 for O=C1NC(=O)N(c2ccc(Cl)cc2)C(=O)/C1=C/c1ccc(Br)o1 [Compound 4] , please?
Response: > 100 µM

---

systemName: GtfB (Amycolatopsis orientalis, UniProt P96559)
Sequence (P96559 whole entry): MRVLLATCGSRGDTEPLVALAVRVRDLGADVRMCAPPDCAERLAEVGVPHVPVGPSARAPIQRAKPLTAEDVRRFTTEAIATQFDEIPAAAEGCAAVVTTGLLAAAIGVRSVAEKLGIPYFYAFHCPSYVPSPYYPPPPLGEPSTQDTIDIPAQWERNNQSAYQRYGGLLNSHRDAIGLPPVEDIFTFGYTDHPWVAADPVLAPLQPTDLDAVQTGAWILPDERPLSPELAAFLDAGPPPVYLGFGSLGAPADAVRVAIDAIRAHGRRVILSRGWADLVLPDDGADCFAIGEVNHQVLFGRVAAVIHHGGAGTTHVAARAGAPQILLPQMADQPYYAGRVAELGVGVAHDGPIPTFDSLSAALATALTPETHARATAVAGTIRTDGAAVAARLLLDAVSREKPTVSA
pIC50: −log10 of the molar value.
Response key: True means pIC50 >= 5; False means pIC50 < 5.

CC1CCN(CN2C(=O)/C(=C\c3ccc(C(C)(C)C)cc3)SC2=S)CC1    False
O=C1/C(=C2/C(=O)N(Cc3ccccc3)c3ccc(Br)cc32)SC(=S)N1CCS(=O)(=O)O    False
O=C(O)CN1C(=O)/C(=C\c2cc(Cl)cc(Br)c2O)SC1=S    True
CC(C)(C)c1ccc(OCCOc2cccc(C=C3C(=O)NC(=S)NC3=O)c2)cc1    False
O=C(O)c1ccc(N2C(=O)/C(=C/c3ccc(-c4ccc(Br)cc4)o3)C=C2c2ccccc2)cc1    False

Query: Reported pIC50 at or above 5? Cc1cc(/C=C2\C(=O)NC(=S)N(c3cccc(Cl)c3)C2=O)c(C)n1-c1cc(C(=O)O)cc(C(=O)O)c1
Response: False

---

systemName: MurG (Escherichia coli, UniProt P17443)
Sequence (P17443 whole entry): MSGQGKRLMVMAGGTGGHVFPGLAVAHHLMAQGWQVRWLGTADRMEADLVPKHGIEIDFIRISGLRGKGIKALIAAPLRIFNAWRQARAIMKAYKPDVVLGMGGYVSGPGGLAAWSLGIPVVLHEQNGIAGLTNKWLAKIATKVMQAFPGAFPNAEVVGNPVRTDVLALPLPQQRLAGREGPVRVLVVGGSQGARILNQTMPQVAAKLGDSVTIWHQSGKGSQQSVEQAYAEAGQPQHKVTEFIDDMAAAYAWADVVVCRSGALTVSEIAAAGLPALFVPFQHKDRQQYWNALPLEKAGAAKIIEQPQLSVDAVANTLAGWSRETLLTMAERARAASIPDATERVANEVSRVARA
experiment: fluorescence polarization displacement assay with labeled donor F1
Format: binding, E. coli
conditions: 25 μM competitor
valueType: Signal change at 25 μM (drop in fluorescence polarization)

Previously resolved entries follow.
Nc1ncnc2c1ncn2[C@@H]1O[C@H](COP(=O)(O)OP(=O)(O)O)[C@@H](O)[C@H]1O    <10%
O=c1ccn([C@@H]2O[C@H](COP(=O)(O)OP(=O)(O)O)[C@@H](O)[C@H]2O)c(=O)[nH]1 [UDP, uridine diphosphate]    50%
O=c1ccn([C@@H]2O[C@H](COP(=O)(O)O)[C@@H](O)[C@H]2O)c(=O)[nH]1    <10%

Consider the additional compound presented here.
Query: Recorded Signal change at 25 μM (drop in fluorescence polarization) for CC(=O)N[C@H]1[C@@H](OP(=O)(O)OP(=O)(O)OC[C@H]2O[C@@H](n3ccc(=O)[nH]c3=O)[C@H](O)[C@@H]2O)O[C@H](CO)[C@H](O)[C@@H]1O , please?
Response: 10%

---

systemName: OGT (Homo sapiens, UniProt O15294)
Construct: His tag; made in house; host or cells: E. coli BL21 (DE3) (Novagen)
Sequence (O15294 51-920 isoform O15294-2 limits assumed): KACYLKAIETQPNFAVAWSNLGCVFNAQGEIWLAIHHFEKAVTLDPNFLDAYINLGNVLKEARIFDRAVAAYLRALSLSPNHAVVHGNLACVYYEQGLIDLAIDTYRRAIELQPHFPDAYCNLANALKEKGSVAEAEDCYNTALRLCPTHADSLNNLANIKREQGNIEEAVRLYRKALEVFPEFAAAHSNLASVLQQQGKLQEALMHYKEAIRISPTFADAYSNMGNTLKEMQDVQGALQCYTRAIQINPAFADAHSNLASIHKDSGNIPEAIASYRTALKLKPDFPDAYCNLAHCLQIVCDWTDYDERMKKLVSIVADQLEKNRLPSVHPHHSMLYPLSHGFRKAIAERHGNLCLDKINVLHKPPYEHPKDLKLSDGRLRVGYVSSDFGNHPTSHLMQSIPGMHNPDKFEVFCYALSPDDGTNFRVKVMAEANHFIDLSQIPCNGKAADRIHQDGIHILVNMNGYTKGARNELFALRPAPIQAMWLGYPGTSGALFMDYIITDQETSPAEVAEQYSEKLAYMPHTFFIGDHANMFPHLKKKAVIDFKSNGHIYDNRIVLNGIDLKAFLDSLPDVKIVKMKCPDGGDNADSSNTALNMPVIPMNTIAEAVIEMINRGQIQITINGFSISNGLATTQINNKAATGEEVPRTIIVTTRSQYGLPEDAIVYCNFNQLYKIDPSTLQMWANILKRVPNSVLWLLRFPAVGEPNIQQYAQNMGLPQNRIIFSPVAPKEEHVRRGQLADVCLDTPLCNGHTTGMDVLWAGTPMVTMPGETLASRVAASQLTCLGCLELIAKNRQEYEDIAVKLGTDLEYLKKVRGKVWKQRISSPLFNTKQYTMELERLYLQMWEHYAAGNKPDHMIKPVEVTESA
experiment: Assay for OGT
Format: biochemical
conditions: read-out: IC50 OGT
Experimental: The mitochondrial splice variant of OGT, minus the first 50 amino acids, was cloned into pET 32b, and expressed from Novagen BL21 (DE3) cells. The pellet was lysed with B-PER (Pierce) and rLysozyme (Novagen) and the soluble fraction was purified using His-Bind Resin (Novagen). Assay reaction buffer was 10 mM Tris pH 7.4 with 100 μg/mL BSA. […] Inhibitors tested were added in 0.5 μL of DMSO and the final reaction volume was 20 μL. […] The samples were measured by liquid scintillation counting.
valueType: IC50

O=C(O)CN1C(=O)/C(=C\c2cc(Cl)cc(Br)c2O)SC1=S    > 100 µM

Query: Recorded IC50 for O=C1/C(=C2/C(=O)N(Cc3ccccc3)c3ccc(Br)cc32)SC(=S)N1CCS(=O)(=O)O , please?
Response: > 100 µM

Query: Recorded IC50 for CC1CCN(CN2C(=O)/C(=C\c3ccc(C(C)(C)C)cc3)SC2=S)CC1 , please?
Response: > 100 µM

Query: Recorded IC50 for O=C(O)c1ccc(N2C(=O)/C(=C/c3ccc(-c4ccc(Br)cc4)o3)C=C2c2ccccc2)cc1 , please?
Response: > 100 µM
